B1: glmS ribozyme (parent)
chain: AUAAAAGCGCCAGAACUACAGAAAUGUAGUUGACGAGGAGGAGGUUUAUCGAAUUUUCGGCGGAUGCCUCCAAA

Variants of: B1
Experiment: self-cleavage kobs at 640 uM GlcN6P; higher = faster cleavage; RNA array
Details: with glucosamine-6-phosphate
Variants at the floor of the assay were thinned out.
ASSAY READOUT: self-cleavage kobs at 640 uM GlcN6P

Worked examples follow.
- MUTANT DESIGNATION: "G7U G40U"
  ASSAY VALUE: "< 1e-05 s⁻¹"
- MUTANT DESIGNATION: "A42C U65C"
  ASSAY VALUE: "< 1e-05 s⁻¹"
- MUTANT DESIGNATION: "C34A U46G G62C"
  ASSAY VALUE: "< 1e-05 s⁻¹"
- MUTANT DESIGNATION: "G29U A33C C50U U57A C61U"
  ASSAY VALUE: "< 1e-05 s⁻¹"

**Query** Need self-cleavage kobs at 640 uM GlcN6P of C16G G40U U65C , thanks.
**Result** < 1e-05 s⁻¹

**Query** Need self-cleavage kobs at 640 uM GlcN6P of A33U A36C G43A C70G , thanks.
**Result** < 1e-05 s⁻¹

**Query** Need self-cleavage kobs at 640 uM GlcN6P of G9U A33G , thanks.
**Result** < 1e-05 s⁻¹

**Query** Need self-cleavage kobs at 640 uM GlcN6P of G7C G66U , thanks.
**Result** < 1e-05 s⁻¹
